- Target: CDC42BPB (human) (UniProt Q9Y5S2)
- Sequence (Q9Y5S2 whole entry, looked up): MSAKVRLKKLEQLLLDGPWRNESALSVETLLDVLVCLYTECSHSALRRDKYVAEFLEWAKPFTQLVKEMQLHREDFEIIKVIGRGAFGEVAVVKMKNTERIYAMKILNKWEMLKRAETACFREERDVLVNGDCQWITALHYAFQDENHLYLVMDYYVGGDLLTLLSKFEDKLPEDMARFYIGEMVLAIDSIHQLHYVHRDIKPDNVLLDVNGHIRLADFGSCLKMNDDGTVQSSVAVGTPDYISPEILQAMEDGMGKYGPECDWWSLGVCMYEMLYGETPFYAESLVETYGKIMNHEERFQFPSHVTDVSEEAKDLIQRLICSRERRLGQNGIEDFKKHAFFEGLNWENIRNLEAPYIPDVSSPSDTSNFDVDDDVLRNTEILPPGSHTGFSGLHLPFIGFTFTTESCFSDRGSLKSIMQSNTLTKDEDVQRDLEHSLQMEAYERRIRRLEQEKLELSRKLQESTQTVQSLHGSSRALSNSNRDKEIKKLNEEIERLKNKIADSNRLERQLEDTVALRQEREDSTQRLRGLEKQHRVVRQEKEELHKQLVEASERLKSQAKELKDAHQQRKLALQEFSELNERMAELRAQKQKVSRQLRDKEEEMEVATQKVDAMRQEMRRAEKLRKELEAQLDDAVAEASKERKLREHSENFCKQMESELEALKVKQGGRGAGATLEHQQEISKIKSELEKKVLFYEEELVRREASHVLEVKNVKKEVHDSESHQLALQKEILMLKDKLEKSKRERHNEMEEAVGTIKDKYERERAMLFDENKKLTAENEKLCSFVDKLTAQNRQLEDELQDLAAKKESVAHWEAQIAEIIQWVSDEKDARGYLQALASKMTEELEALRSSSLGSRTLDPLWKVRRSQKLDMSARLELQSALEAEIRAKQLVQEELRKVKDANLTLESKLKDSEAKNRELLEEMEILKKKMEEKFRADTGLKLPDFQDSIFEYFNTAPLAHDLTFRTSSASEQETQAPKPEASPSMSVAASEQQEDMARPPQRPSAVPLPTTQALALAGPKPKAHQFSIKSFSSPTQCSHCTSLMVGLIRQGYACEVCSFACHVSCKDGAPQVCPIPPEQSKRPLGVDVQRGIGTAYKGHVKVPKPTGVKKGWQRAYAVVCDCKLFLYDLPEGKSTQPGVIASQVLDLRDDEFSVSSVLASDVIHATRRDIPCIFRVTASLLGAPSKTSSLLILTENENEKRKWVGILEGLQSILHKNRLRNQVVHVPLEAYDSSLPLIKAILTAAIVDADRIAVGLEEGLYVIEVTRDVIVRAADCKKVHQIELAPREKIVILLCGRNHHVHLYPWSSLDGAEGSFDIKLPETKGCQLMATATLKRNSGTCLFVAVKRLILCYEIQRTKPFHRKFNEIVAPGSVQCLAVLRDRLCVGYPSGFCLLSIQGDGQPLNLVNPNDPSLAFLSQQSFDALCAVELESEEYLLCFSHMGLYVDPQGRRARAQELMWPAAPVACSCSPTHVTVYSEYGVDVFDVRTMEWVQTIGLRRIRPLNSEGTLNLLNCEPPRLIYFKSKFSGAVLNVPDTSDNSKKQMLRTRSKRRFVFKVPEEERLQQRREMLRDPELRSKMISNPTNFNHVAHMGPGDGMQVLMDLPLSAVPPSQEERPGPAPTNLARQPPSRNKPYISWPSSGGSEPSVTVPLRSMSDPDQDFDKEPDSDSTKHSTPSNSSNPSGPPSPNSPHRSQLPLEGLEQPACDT
- Test Name: KINOMEscan competition binding
- Condition Info: compound 10.0 µM
Test Readout: kinase still bound, per cent of control

Solved cases below.
CCN1CCN(Cc2ccc(NC(=O)c3ccc(C)c(/C=C/c4cnc5[nH]ccc5c4OC)c3)cc2C(F)(F)F)CC1 ... 65%
COc1ccc(N(C(=O)Oc2cc(C(=O)Nc3cccc(C(F)(F)F)c3)ccc2C)c2ccnc(Nc3ccc(N4CCN(C)CC4)cc3)n2)c(OC)c1 ... 100%
C=CC(=O)Nc1ccc(C(=O)c2sc(Nc3ccc(N4CCN(C)CC4)cc3OC)nc2N)cc1 ... 100%

Below: the item to evaluate.
Kindly note the recorded kinase still bound, per cent of control for CCCS(=O)(=O)Nc1ccc(F)c(C(=O)c2c[nH]c3ncc(Cl)cc23)c1F , which is 100%
